target: D(2) dopamine receptor (Homo sapiens); assay: Inhibition of dopamine D2 receptor (unknown origin)
Sequence (P14416 whole entry): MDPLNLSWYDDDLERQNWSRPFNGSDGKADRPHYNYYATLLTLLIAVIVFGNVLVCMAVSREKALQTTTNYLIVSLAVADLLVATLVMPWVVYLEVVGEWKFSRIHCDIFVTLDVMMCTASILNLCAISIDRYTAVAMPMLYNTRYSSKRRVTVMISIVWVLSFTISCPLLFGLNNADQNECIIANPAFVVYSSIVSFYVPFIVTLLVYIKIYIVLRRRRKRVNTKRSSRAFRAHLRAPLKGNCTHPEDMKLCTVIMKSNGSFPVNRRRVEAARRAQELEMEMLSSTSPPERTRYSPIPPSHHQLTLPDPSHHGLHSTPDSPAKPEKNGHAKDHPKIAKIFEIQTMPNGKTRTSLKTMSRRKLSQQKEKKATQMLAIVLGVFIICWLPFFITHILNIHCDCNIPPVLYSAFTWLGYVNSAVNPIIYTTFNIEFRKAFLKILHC
measured.endpoint: pIC50
The scale used: pIC50 is minus the common logarithm of the concentration in molar units.

Retrieve pIC50 measured for Cc1c(C#Cc2ccc(CN3CCC(CO)CC3)cc2)cc(C(F)F)c2cn(C(C(=O)Nc3nccs3)c3ncn4c3CCC43CC3)nc12 (stereo unspecified) and print it.
6.00

---

test: Volume of distribution at steady state in CD1 mouse at 1 mg/kg, iv administered as single dose measured after 24 hrs by LC-MS/MS analysis; type: ADME, organism-based; settings: in vivo, read-out: Vdss
measured.endpoint: Vd
# output: number + unit

Tell us which Vd value is on record for Cc1c(C#Cc2ccc(CN3CCC(CO)CC3)cc2)cc(C(F)F)c2cn(C(C(=O)Nc3nccs3)c3ncn4c3CCC43CC3)nc12 (stereo unspecified)
10 L/kg
